Tested on: NCI-H23
Type: cell-based
Conditions: Non-small cell lung cancer; 10^−5 molar; 48 hours; SRB

>  <Compound>
CCNc1nc2ccccc2c2c(=O)c3cc(Cl)ccc3sc12 [Compound N2]

>  <Growth percent NCI-H23, %>
86.29

$$$$
>  <Compound>
O=c1c2ccc(Cl)cc2sc2c(Cl)nc3ccccc3c12 [Compound 3]

>  <Growth percent NCI-H23, %>
85.12

$$$$
>  <Compound>
CN(C)CCNc1nc2ccccc2c2c(=O)c3cc(Cl)ccc3sc12 [Compound N7]

>  <Growth percent NCI-H23, %>
72.59

$$$$
>  <Compound>
NCCNc1nc2ccccc2c2c(=O)c3cc(Cl)ccc3sc12 [Compound N14]

>  <Growth percent NCI-H23, %>
−5.25

$$$$
>  <Compound>
CCC(CC)Nc1nc2ccccc2c2c(=O)c3cc(Cl)ccc3sc12 [Compound N6]

>  <Growth percent NCI-H23, %>
94.17

$$$$
>  <Compound>
CNc1nc2ccccc2c2c(=O)c3cc(Cl)ccc3sc12 [Compound N1]

>  <Growth percent NCI-H23, %>
44.39

$$$$
>  <Compound>
CCC(CO)Nc1nc2ccccc2c2c(=O)c3cc(Cl)ccc3sc12 (stereo not shown) [Compound N12]

>  <Growth percent NCI-H23, %>
81.25

$$$$
>  <Compound>
O=c1c2cc(Cl)ccc2sc2c(NCCO)nc3ccccc3c12 [Compound N9]

>  <Growth percent NCI-H23, %>
86.06

$$$$
>  <Compound>
O=c1c2cc(Cl)ccc2sc2c(N3CCN(Cc4ccccc4)CC3)nc3ccccc3c12 [Compound 11]

>  <Growth percent NCI-H23, %>
89.94

$$$$
>  <Compound>
CC(C)CC(C)Nc1nc2ccccc2c2c(=O)c3cc(Cl)ccc3sc12 (stereo not shown) [Compound N13]

>  <Growth percent NCI-H23, %>
95.10

$$$$

====

Tested on: HCT-116
Flag rule - GI50 less than 2 µM flags label 1; the remaining entries get label 0.

>  <Compound>
NCCNc1nc2ccccc2c2c(=O)c3cc(Cl)ccc3sc12 [Compound N14]

>  <Answer Label>
label 1

$$$$
>  <Compound>
CCNc1nc2ccccc2c2c(=O)c3cc(Cl)ccc3sc12 [Compound N2]

>  <Answer Label>
label 0

$$$$
>  <Compound>
O=c1c2cc(Cl)ccc2sc2c(NCCCNCCO)nc3ccccc3c12 [Compound N19]

>  <Answer Label>
label 1

$$$$
>  <Compound>
CN(C)CCNc1nc2ccccc2c2c(=O)c3cc(Cl)ccc3sc12 [Compound N7]

>  <Answer Label>
label 1

$$$$
>  <Compound>
O=c1c2cc(Cl)ccc2sc2c(NCc3ccccc3)nc3ccccc3c12 [Compound N25]

>  <Answer Label>
label 0

$$$$

====

System: SK-OV-3
Type: cell-based
Settings: SK-OV-3; 10^−5 molar
Param threshold (90%) applies to Growth percent; output y when value >= threshold, n when value < threshold.

>  <Compound String>
COc1ccc(CCNc2nc3ccccc3c3c(=O)c4cc(Cl)ccc4sc23)cc1

>  <Answer Label>
y

$$$$
>  <Compound String>
CN(C)CCCNc1nc2ccccc2c2c(=O)c3cc(Cl)ccc3sc12

>  <Answer Label>
y

$$$$
>  <Compound String>
O=c1c2cc(Cl)ccc2sc2c(NC3CCCCC3)nc3ccccc3c12

>  <Answer Label>
y

$$$$
>  <Compound String>
O=c1c2cc(Cl)ccc2sc2c(NCCN3CCOCC3)nc3ccccc3c12

>  <Answer Label>
n

$$$$
>  <Compound String>
O=c1c2cc(Cl)ccc2sc2c(NCc3ccc4c(c3)OCO4)nc3ccccc3c12

>  <Answer Label>
n

$$$$

====

Tested on: UO-31
Type: cell-based
Conditions: Homo sapiens; UO-31; five dose; read-out: LC50 (the source's name)
Parameter: CC50

>  <Molecule>
O=c1c2cc(Cl)ccc2sc2c(NCCCNCCO)nc3ccccc3c12 [Compound N19]

>  <Measured Result>
6.35 µM

$$$$
>  <Molecule>
NCCNc1nc2ccccc2c2c(=O)c3cc(Cl)ccc3sc12 [Compound N14]

>  <Measured Result>
5.96 µM

$$$$
>  <Molecule>
CN(C)CCNc1nc2ccccc2c2c(=O)c3cc(Cl)ccc3sc12 [Compound N7]

>  <Measured Result>
5.22 µM

$$$$
>  <Molecule>
CCNc1nc2ccccc2c2c(=O)c3cc(Cl)ccc3sc12 [Compound N2]

>  <Measured Result>
> 100 µM

$$$$
>  <Molecule>
O=c1c2cc(Cl)ccc2sc2c(NCc3ccccc3)nc3ccccc3c12 [Compound N25]

>  <Measured Result>
> 100 µM

$$$$

====

Reported values of Growth percent COLO 205 for individual entries
Test system: COLO 205
Assay type: cell-based
Settings: Colon cancer; 10^−5 molar; 48 hours; SRB
Parameter: Growth percent COLO 205 (%)

>  <Compound>
CC(C)CC(C)Nc1nc2ccccc2c2c(=O)c3cc(Cl)ccc3sc12 (stereo not shown)

>  <Target Or Test System>
COLO 205

>  <Parameter>
Growth percent COLO 205

>  <Measured Result>
93.45

$$$$
>  <Compound>
O=c1c2ccc(Cl)cc2sc2c(Cl)nc3ccccc3c12

>  <Target Or Test System>
COLO 205

>  <Parameter>
Growth percent COLO 205

>  <Measured Result>
112.15

$$$$
>  <Compound>
CCC(CC)Nc1nc2ccccc2c2c(=O)c3cc(Cl)ccc3sc12

>  <Target Or Test System>
COLO 205

>  <Parameter>
Growth percent COLO 205

>  <Measured Result>
107.68

$$$$
>  <Compound>
CCC(CO)Nc1nc2ccccc2c2c(=O)c3cc(Cl)ccc3sc12 (stereo not shown)

>  <Target Or Test System>
COLO 205

>  <Parameter>
Growth percent COLO 205

>  <Measured Result>
68.37

$$$$
>  <Compound>
CNc1nc2ccccc2c2c(=O)c3cc(Cl)ccc3sc12

>  <Target Or Test System>
COLO 205

>  <Parameter>
Growth percent COLO 205

>  <Measured Result>
94.82

$$$$
>  <Compound>
NCCNc1nc2ccccc2c2c(=O)c3cc(Cl)ccc3sc12

>  <Target Or Test System>
COLO 205

>  <Parameter>
Growth percent COLO 205

>  <Measured Result>
−87.22

$$$$
>  <Compound>
CN(C)CCNc1nc2ccccc2c2c(=O)c3cc(Cl)ccc3sc12

>  <Target Or Test System>
COLO 205

>  <Parameter>
Growth percent COLO 205

>  <Measured Result>
−82.85

$$$$
>  <Compound>
CCNc1nc2ccccc2c2c(=O)c3cc(Cl)ccc3sc12

>  <Target Or Test System>
COLO 205

>  <Parameter>
Growth percent COLO 205

>  <Measured Result>
82.36

$$$$
>  <Compound>
O=c1c2cc(Cl)ccc2sc2c(NCCO)nc3ccccc3c12

>  <Target Or Test System>
COLO 205

>  <Parameter>
Growth percent COLO 205

>  <Measured Result>
99.13

$$$$
>  <Compound>
O=c1c2cc(Cl)ccc2sc2c(N3CCN(Cc4ccccc4)CC3)nc3ccccc3c12

>  <Target Or Test System>
COLO 205

>  <Parameter>
Growth percent COLO 205

>  <Measured Result>
105.64

$$$$

====

Tested on: MDA-MB-231/ATCC
Type: cell-based
Details: Homo sapiens; MDA-MB-231/ATCC; five dose; read-out: LC50 (the source's name)
Parameter: CC50 (µM)

>  <Compound String>
NCCNc1nc2ccccc2c2c(=O)c3cc(Cl)ccc3sc12

>  <Parameter>
CC50

>  <Value Units>
µM

>  <Value Modifier>
=

>  <Measured Result>
5.35

$$$$
>  <Compound String>
O=c1c2cc(Cl)ccc2sc2c(NCc3ccccc3)nc3ccccc3c12

>  <Parameter>
CC50

>  <Value Units>
µM

>  <Value Modifier>
>

>  <Measured Result>
100

$$$$
>  <Compound String>
CN(C)CCNc1nc2ccccc2c2c(=O)c3cc(Cl)ccc3sc12

>  <Parameter>
CC50

>  <Value Units>
µM

>  <Value Modifier>
=

>  <Measured Result>
5.28

$$$$
>  <Compound String>
CCNc1nc2ccccc2c2c(=O)c3cc(Cl)ccc3sc12

>  <Parameter>
CC50

>  <Value Units>
µM

>  <Value Modifier>
>

>  <Measured Result>
100

$$$$
>  <Compound String>
O=c1c2cc(Cl)ccc2sc2c(NCCCNCCO)nc3ccccc3c12

>  <Parameter>
CC50

>  <Value Units>
µM

>  <Value Modifier>
=

>  <Measured Result>
6.02

$$$$

====

Test system: NCI-H226
Format: cell-based
Conditions: NCI-H226; five dose

>  <Compound String>
O=c1c2cc(Cl)ccc2sc2c(NCCCNCCO)nc3ccccc3c12

>  <Value Modifier>
=

>  <TGI [µM]>
4.46

$$$$
>  <Compound String>
CN(C)CCNc1nc2ccccc2c2c(=O)c3cc(Cl)ccc3sc12

>  <Value Modifier>
=

>  <TGI [µM]>
4.38

$$$$
>  <Compound String>
NCCNc1nc2ccccc2c2c(=O)c3cc(Cl)ccc3sc12

>  <Value Modifier>
=

>  <TGI [µM]>
2.95

$$$$
>  <Compound String>
CCNc1nc2ccccc2c2c(=O)c3cc(Cl)ccc3sc12

>  <Value Modifier>
>

>  <TGI [µM]>
100

$$$$

Cited source: patent US8927717B1
